Consider the following compounds; for each one, report its Activity.
Target: Polyunsaturated fatty acid lipoxygenase ALOX15 (Homo sapiens) (UniProt P16050)
Sequence (P16050 whole entry): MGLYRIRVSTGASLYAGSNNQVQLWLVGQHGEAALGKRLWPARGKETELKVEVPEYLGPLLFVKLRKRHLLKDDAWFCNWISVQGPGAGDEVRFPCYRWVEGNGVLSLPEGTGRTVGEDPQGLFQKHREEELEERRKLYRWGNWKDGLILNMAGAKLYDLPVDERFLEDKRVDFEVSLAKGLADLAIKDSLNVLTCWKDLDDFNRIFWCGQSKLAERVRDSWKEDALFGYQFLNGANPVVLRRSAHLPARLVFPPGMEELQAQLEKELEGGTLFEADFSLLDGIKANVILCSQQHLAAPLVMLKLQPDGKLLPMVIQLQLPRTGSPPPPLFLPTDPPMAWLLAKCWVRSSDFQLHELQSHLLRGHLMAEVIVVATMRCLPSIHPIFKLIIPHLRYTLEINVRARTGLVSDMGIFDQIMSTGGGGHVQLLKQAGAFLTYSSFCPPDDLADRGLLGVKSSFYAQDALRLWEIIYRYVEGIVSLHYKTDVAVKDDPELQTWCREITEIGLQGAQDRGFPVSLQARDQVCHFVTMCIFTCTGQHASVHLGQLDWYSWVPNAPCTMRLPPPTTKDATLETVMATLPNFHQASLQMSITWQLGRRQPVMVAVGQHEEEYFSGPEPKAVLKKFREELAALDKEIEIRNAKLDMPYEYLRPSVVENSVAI
Test: Inhibition of 15-LO in human PMNL using arachidonic acid as substrate assessed as residual activity at 10 uM preincubated for 15 mins
Answers are plain numbers, in %.

# annotated cases, reported Activity shown
compound=O=C(Cc1ccc2ccccc2c1)c1ccc(O)cc1O value_units=% value_observed=108
compound=Oc1ccc(Cc2ccc3ccccc3c2)c(O)c1 value_units=% value_observed=191
compound=O=C1C=C(c2cccc3c2oc2ccccc23)C(=O)C=C1O value_units=% value_observed=79.8
compound=Oc1ccc(-c2cccc3c2Sc2ccccc2S3)c(O)c1 value_units=% value_observed=58.3
compound=O=[N+]([O-])c1cccc(-c2ccc(O)cc2O)c1 value_units=% value_observed=108
compound=COC1=CC(=O)C(O)=C(Cc2ccccc2)C1=O value_units=% value_observed=96.4
compound=O=C1C=C(Cc2ccccc2)C(=O)C=C1O value_units=% value_observed=132
compound=COC1=CC(=O)C(Oc2ccc3ccccc3c2)=CC1=O value_units=% value_observed=47.9
compound=Oc1ccc(-c2cccc3c2oc2ccccc23)c(O)c1 value_units=% value_observed=182
compound=Oc1ccc(-c2ccccc2)c(O)c1 value_units=% value_observed=106

List Activity for every entry below, keeping the order given.
1. O=C1C=C(Cc2ccc3cc(C(=O)O)ccc3c2)C(=O)C=C1O
2. O=C1C=C(O)C(=O)C(CC2CCC3CCCCC3C2)=C1O (stereo not given)

### Response
[80.9, 87.9]

Provide Activity for all items below, preserving their order.
1. Oc1ccc(-c2csc3ccccc23)c(O)c1
2. COC1=CC(=O)C(O)=C(Cc2ccc3ccccc3c2)C1=O
3. O=C1C=C(Cc2ccc3ccccc3c2)C(=O)C=C1O
4. O=C1C=C(O)C(=O)C(CC2CCCCC2)=C1O
5. O=C1C=C(c2cccc([N+](=O)[O-])c2)C(=O)C=C1O
6. CCCCCCC1=CC(=O)C(O)=CC1=O

### Response
115
89.5
147
87.3
116
185

For every item below, please supply its Activity.
1. CCCCCCc1ccc(O)cc1O [HEXYLRESORCINOL]
2. Oc1ccc(Cc2ccccc2)c(O)c1

### Response
1. 110
2. 116

----------
Provide the reported pIC50 of each item.
Target: Polyunsaturated fatty acid 5-lipoxygenase (Homo sapiens)
Test: Inhibition of 5-LO in human PMNL using arachidonic acid as substrate preincubated for 15 mins
One number for each entry, as −log10 of the molar value.

A selection of reference data follows.
compound="CCCCCCc1ccc(O)cc1O [HEXYLRESORCINOL]" tested_target="Polyunsaturated fatty acid 5-lipoxygenase (Homo sapiens)" observable=pIC50 value_observed=5.55
compound=Oc1ccc(-c2cccc3c2Sc2ccccc2S3)c(O)c1 tested_target="Polyunsaturated fatty acid 5-lipoxygenase (Homo sapiens)" observable=pIC50 value_observed=5.68
compound=Oc1ccc(Cc2ccc3ccccc3c2)c(O)c1 tested_target="Polyunsaturated fatty acid 5-lipoxygenase (Homo sapiens)" observable=pIC50 value_observed=5.64

Here's the next entry for you.
### Prompt pIC50 for Oc1ccc(-c2ccccc2)c(O)c1 ?
### Response 5.38

----------
Target: Polyunsaturated fatty acid 5-lipoxygenase (Homo sapiens, UniProt P09917)
Test: Competitive inhibition of human recombinant 5-LO expressed in Escherichia coli BL21 using 40 uM of arachidonic acid as substrate preincubated for 15 mins measured after 10 mins
Observable: IC50 (nM)
Give bare numbers, in nM.

### Prompt For the compound shown here, O=C1C=C(Cc2ccc3ccccc3c2)C(=O)C=C1O , give the reported IC50.
### Response 310

----------
Biological target: Polyunsaturated fatty acid 5-lipoxygenase (Homo sapiens)
Assay: Inhibition of human recombinant 5-LO expressed in Escherichia coli BL21 using arachidonic acid as substrate after 10 mins
Observable: pIC50
One number for each entry, as −log10 of the molar value.

Some entries whose results are on file:
given_smiles=O=C1C=C(Cc2ccc3ccccc3c2)C(=O)C=C1O observable=pIC50 value_observed=6.11
given_smiles=Oc1ccc(-c2cccc3c2oc2ccccc23)c(O)c1 observable=pIC50 value_observed=5.20
given_smiles=O=C1C=C(c2cccc([N+](=O)[O-])c2)C(=O)C=C1O observable=pIC50 value_observed=5.34
given_smiles=Oc1ccc(Cc2ccc3ccccc3c2)c(O)c1 observable=pIC50 value_observed=5.13
given_smiles=CCCCCCC1=CC(=O)C(O)=CC1=O observable=pIC50 value_observed=5.85

Provide pIC50 for all items below, preserving their order.
1. O=C1C=C(Cc2ccc3cc(C(=O)O)ccc3c2)C(=O)C=C1O
2. COC1=CC(=O)C(Oc2ccc3ccccc3c2)=CC1=O

### Response
1: 5.05; 2: 6.55

----------
Please go through the items and note down their Activity.
Target: Polyunsaturated fatty acid 5-lipoxygenase (Homo sapiens)
Sequence (whole entry): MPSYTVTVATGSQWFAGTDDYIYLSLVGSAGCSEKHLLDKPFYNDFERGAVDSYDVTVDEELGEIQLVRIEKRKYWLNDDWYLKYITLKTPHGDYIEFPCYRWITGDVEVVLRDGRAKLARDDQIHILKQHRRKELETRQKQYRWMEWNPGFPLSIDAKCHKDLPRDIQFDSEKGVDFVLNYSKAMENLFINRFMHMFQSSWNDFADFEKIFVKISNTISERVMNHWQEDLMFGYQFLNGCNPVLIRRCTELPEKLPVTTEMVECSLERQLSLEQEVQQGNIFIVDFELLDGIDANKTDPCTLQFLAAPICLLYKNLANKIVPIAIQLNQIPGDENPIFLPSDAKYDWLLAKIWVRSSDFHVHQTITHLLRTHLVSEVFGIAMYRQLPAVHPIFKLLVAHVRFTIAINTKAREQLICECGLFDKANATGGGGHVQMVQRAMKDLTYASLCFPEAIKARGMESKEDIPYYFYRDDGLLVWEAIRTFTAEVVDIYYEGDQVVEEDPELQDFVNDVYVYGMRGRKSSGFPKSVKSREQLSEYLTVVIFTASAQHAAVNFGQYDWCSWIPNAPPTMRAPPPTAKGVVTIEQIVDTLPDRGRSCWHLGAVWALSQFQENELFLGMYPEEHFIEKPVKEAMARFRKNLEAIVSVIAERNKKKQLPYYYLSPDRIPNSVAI
Assay: Inhibition of 5-LO in human PMNL using arachidonic acid as substrate assessed as residual activity at 10 uM preincubated for 15 mins
Reply with a number, then the unit it belongs to.

Examples with answers:
molecule=Oc1ccc(Cc2ccccc2)c(O)c1 value_observed=60%
molecule="CCCCCCc1ccc(O)cc1O [HEXYLRESORCINOL]" value_observed=18.6%
molecule=Oc1ccc(Cc2ccc3ccccc3c2)c(O)c1 value_observed=8.9%
molecule=Oc1ccc(-c2ccccc2)c(O)c1 value_observed=22.7%
molecule=COC1=CC(=O)C(O)=C(Cc2ccc3ccccc3c2)C1=O value_observed=56.1%

Quick batch: Activity for everything below.
1. COC1=CC(=O)C(O)=C(Cc2ccccc2)C1=O
2. Oc1ccc(-c2cccc3c2Sc2ccccc2S3)c(O)c1

### Response
1: 103%; 2: 10.5%

----------
Target: Polyunsaturated fatty acid lipoxygenase ALOX12 (Homo sapiens)
Assay: Inhibition of 12-LO in human PMNL using arachidonic acid as substrate assessed as residual activity at 10 uM preincubated for 15 mins
Observable: Activity (%)
Give bare numbers, in %.

given_smiles=CCCCCCc1ccc(O)cc1O tested_target="Polyunsaturated fatty acid lipoxygenase ALOX12 (Homo sapiens)" observable=Activity value_observed=69.3

Give Activity for all molecules that follow.
1. Oc1ccc(-c2csc3ccccc23)c(O)c1
2. O=C1C=C(Cc2ccccc2)C(=O)C=C1O
3. CCCCCCC1=CC(=O)C(O)=CC1=O
4. Oc1ccc(-c2cccc3c2Sc2ccccc2S3)c(O)c1
5. COC1=CC(=O)C(O)=C(Cc2ccccc2)C1=O
6. Oc1ccc(Cc2ccc3ccccc3c2)c(O)c1
7. O=C1C=C(c2cccc([N+](=O)[O-])c2)C(=O)C=C1O

### Response
[115, 95.4, 89.8, 91.4, 84, 79.2, 60.9]

----------
Target: Polyunsaturated fatty acid 5-lipoxygenase (Homo sapiens, UniProt P09917)
Experiment: Inhibition of 5-LO in human PMNL using arachidonic acid as substrate preincubated for 15 mins
I'd appreciate it if you could supply IC50 values for the items below.
Give bare numbers, in µM.

# annotated cases, reported IC50 shown
given_smiles=O=C1C=C(Cc2ccc3ccccc3c2)C(=O)C=C1O tested_target="Polyunsaturated fatty acid 5-lipoxygenase (Homo sapiens, UniProt P09917)" value_observed=2.3
given_smiles=CCCCCCC1=CC(=O)C(O)=CC1=O tested_target="Polyunsaturated fatty acid 5-lipoxygenase (Homo sapiens, UniProt P09917)" value_observed=3

Proceed to the following item.
### Prompt Which IC50 is reported with Polyunsaturated fatty acid 5-lipoxygenase (Homo sapiens, UniProt P09917) for this entry: COC1=CC(=O)C(Oc2ccc3ccccc3c2)=CC1=O ?
### Response 6.7

----------
Target: Polyunsaturated fatty acid 5-lipoxygenase (Homo sapiens)
Experiment: Inhibition of 5-LO in human PMNL using arachidonic acid as substrate assessed as residual activity at 10 uM preincubated for 15 mins
Labelling: Activity reported below 20% becomes 1.0; at or above becomes 0.0.

Before answering, review these 5 worked examples.
compound=O=C1C=C(c2cccc3c2oc2ccccc23)C(=O)C=C1O classification=0.0
compound=CCCCCCC1=CC(=O)C(O)=CC1=O classification=1.0
compound="O=C1C=C(O)C(=O)C(CC2CCC3CCCCC3C2)=C1O (stereo unspecified)" classification=1.0
compound=COC1=CC(=O)C(Oc2ccc3ccccc3c2)=CC1=O classification=0.0
compound=O=C1C=C(c2cccc([N+](=O)[O-])c2)C(=O)C=C1O classification=0.0

### Prompt Take the compound O=C1C=C(Cc2ccc3ccccc3c2)C(=O)C=C1O and say whether its Activity is less than 20%.
### Response 1.0
